Quick list: koff per entry.
- Test Target: T1, His-tagged human TIGIT (human, UniProt Q495A1 22-141)
- T1 construct: soluble analyte in SPR
- T1 sequence: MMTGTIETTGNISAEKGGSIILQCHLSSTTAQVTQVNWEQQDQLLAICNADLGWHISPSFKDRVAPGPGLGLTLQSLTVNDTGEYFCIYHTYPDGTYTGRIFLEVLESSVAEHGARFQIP
- Test Name: SPR Biacore, antibody captured on anti-human Fc, His-tagged TIGIT injected
Expressed in s⁻¹, but write only the number.

Reference set, count: 3
7728B03 (antibody, V domains shown, constant regions correspond to those of H03-12) VH: QMQLVQSGSELKKPGASVKVSCKASGYTFTSYPMNWVRQAPGQGLEWMGWINTNTGNPTYAQGFTGRFVFSLDTSVSTAYLQISSLKAEDTAVYYCARTGGYSVDEYSFDIWGQGTTVTVSS VL: DIQLTQSPSFLSASVGDRVTITCRASQGISSYLAWYQQKPGKAPKLLIYAASTLQSGVPSRFSGSGSGTEFTLTISSLQPEDFATYYCHQTIFRPTFGGGTKVEIK | 2.15e-05
3966C11 (antibody, human IgG1, V domains shown, constant regions correspond to those of H03-12 (human IgG1, kappa)) VH: EIQLVQSGSELKKPGASVKVSCKASGYTFTSYPMNWVRQAPGQGLEWMGWINTNTGNPTNAQGFTGRFVFSLDTSVSTAYLQISSLKAEDTAVYYCARVGGYGGYDYAFDIWGQGTMVTVSS VL: DIQLTQSPSFLSASVGDRVTITCRASQGISSYLAWYQQKPGKAPKLLIYAASTLQSGVPSRFSGSGSGTEFTLTISSLQPEDFATYYCQQLNSYPTFGGGTKLEIK | 0.000274
3965D08 (antibody, human IgG1, V domains shown, constant regions correspond to those of H03-12 (human IgG1, kappa)) VH: EVQLVQSGSELKKPGASVKVSCKASGYTFTSYPMNWVRQAPGQGLEWMGWINTNTGNPTYAQGFTGRFVFSLDTSVSTAYLQISSLKAEDTAVYYCARTGYSGSYYWFDPWGQGTLVTVSS VL: DIRLTQSPSFLSASVGDRVTITCRASQGISSYLAWYQQKPGKAPKFLIYAASTLQSGVPSRFSGSGSGTEFTLTISSLQPEDFATYYCQQLNSYLTFGQGTRLEIK | 0.00497

Moving on to another binder below.
State the recorded koff for this entry: 3964A06 (antibody, human IgG1, V domains shown) VH: EVQLVQSGSELKKPGASVKVSCKASGYTFTAYPMNWVRQAPGQGLEWMGWINTNTGNPTYAQGFTGRFVFSLDTSVSTAYLQISSLKAEDTAVYYCARVGGYSVYDYAFDIWGQGTMVTVSS VL: DIQLTQSPSFLSASVGDRVTITCRASQGISSYLAWYQQKPGKAPKLLIYAASTLQSGVPSRFSGSGSGTEFTLTISSLQPEDFATYYCQQLNSYPTFGGGTKVEIK 0.000233
